# Method description: gradient 5% acetonitrile 3 min, to 50% in 2 min, to 85% in 15 min, held 3 min, 100 µL/min
# Settings: column: Zorbax Extend-C18 2.1 x 50 mm; eluents: water / acetonitrile, 0.1% formic acid
Observed property: RP-LC retention time (s)

Cc1ccc(NC(=O)N2CCC3(CC2)NC(=O)c2cc(Cl)ccc2N3C)cc1C    904
COc1cccc(S(=O)(=O)N2CCc3nc(-c4ccccc4)ncc3C2)c1    1050
CN(C)C(=O)c1cc2c(s1)CCC(C(=O)N1CCOCC1)C2 (stereo not drawn)    781

----------
# Method description: gradient 5% acetonitrile 3 min, to 50% in 2 min, to 85% in 15 min, held 3 min, 100 µL/min
# Settings: column: Zorbax Extend-C18 2.1 x 50 mm; eluents: water / acetonitrile, 0.1% formic acid
Observed property: RP-LC retention time (s)

CC(=O)Nc1cccc(N2CC(C(=O)Nc3ccc(C(F)(F)F)cc3)CC2=O)c1 (stereo unspecified)    770
O=C(CCSc1ccccc1)Nc1ccc2c(c1)CN(C(=O)C1CC1)CC2    816
COc1ccc(-c2noc(-c3nn(-c4cccc(OC)c4)ccc3=O)n2)cc1    876
CC(=O)Nc1ccc(C(=O)N(C2CC2)C2(C(=O)NCc3ccccc3)CCN(C(C)=O)CC2)cc1    692
Cc1ccc(C)c(NC(=O)NCCn2c(-c3ccncc3)nc3cccnc32)c1    638
Cc1oc(-c2ccc(C(=O)N3CCCCC3)cc2)nc1CS(=O)(=O)c1ccccc1    843
CN1C(=O)c2cc(C(=O)N3CCOCC3)nn2CC1(C)C(=O)NCc1ccccc1 (stereo unspecified)    632
Cc1ccc(CNC(=O)C2(C)CCN(C(=O)Nc3ccc(C)c(Cl)c3)CC2)cc1    972
CCCN(CC1CCOC1)C(=O)c1cc(F)ccc1Cl (stereo unspecified)    821
COc1ccc2c(c1)C1(CCN(S(=O)(=O)c3ccc(NC(C)=O)cc3)C1)C(=O)N2 (stereo unspecified)    686
CN(C1CCc2nn(C)c(=O)n2CC1)S(=O)(=O)c1cccc(C#N)c1 (stereo unspecified)    667
Fc1cccc(-c2nc(-c3ccc4nncn4c3)no2)c1    813
COc1ccc(OC)c(NC(=O)C2CCCN2S(=O)(=O)c2ccc3c(c2)NC(=O)CO3)c1 (stereo unspecified)    803
Cn1nnnc1SCC(=O)OCc1cc(-c2ccco2)on1    728
Cc1ccc2c(c1)C(=O)NC1(CCN(C(=O)NC3CCCCC3)CC1)N2C    763
O=C(O)c1ccccc1C(=O)Nc1cccc(Cl)c1    701

----------
# Method description: gradient 5% acetonitrile 3 min, to 50% in 2 min, to 85% in 15 min, held 3 min, 100 µL/min
# Settings: column: Zorbax Extend-C18 2.1 x 50 mm; eluents: water / acetonitrile, 0.1% formic acid
Observed property: RP-LC retention time (s)

O=C(Cc1csc(-c2ccccc2F)n1)NCCc1c[nH]c2ccccc12    904
O=c1ccc(N2CCC(NS(=O)(=O)c3ccc(Cl)s3)CC2)nn1CC1CC1    875
O=C(Nc1cnc(N2CCCCC2)nc1)c1ccccc1Br    902

----------
# Method description: gradient 5% acetonitrile 3 min, to 50% in 2 min, to 85% in 15 min, held 3 min, 100 µL/min
# Settings: column: Zorbax Extend-C18 2.1 x 50 mm; eluents: water / acetonitrile, 0.1% formic acid
Observed property: RP-LC retention time (s)

CC1CCC2(CC1)NC(=O)N(CC(=O)Nc1ccc3c(c1)OCO3)C2=O (stereo unspecified)    708
O=C(Cn1nc2c(N3CCc4ccccc4C3)nccn2c1=O)NC1CCCC1    793
CC(C)NC(=O)c1cccc(Nc2c(-c3ccccc3)nc3cnccn23)c1    719
CCc1cccc(NC(=O)C2CCCN(c3nnc(C)c4c(C)n(-c5ccccc5)nc34)C2)c1 (stereo unspecified)    815
CC(C)N(C(=O)Cn1c(C2CC(=O)N(C(C)(C)C)C2)nc2ccccc21)c1ccccc1 (stereo unspecified)    702
COC(=O)COc1cc(-c2cccc(Cl)c2)nc2ccc(NC(=O)C3CC3)cc12    823

----------
# Method description: gradient 5% acetonitrile 3 min, to 50% in 2 min, to 85% in 15 min, held 3 min, 100 µL/min
# Settings: column: Zorbax Extend-C18 2.1 x 50 mm; eluents: water / acetonitrile, 0.1% formic acid
Observed property: RP-LC retention time (s)

Cc1ccccc1Nc1c(-c2ccccc2O)nc2ccccn12    701
CCC(C(=O)NCCc1c[nH]c2ccc(OC)cc12)n1c2ccccc2c2cnn(C)c(=O)c21 (stereo not drawn)    890
COCCOC(=O)c1cn(-c2cccc(OC)c2)c(=O)c2ccccc12    902

----------
# Method description: gradient 5% acetonitrile 3 min, to 50% in 2 min, to 85% in 15 min, held 3 min, 100 µL/min
# Settings: column: Zorbax Extend-C18 2.1 x 50 mm; eluents: water / acetonitrile, 0.1% formic acid
Observed property: RP-LC retention time (s)

CCc1ccc(N2CC(c3nc(-c4ccc(OC)cc4OC)no3)CC2=O)cc1 (stereo not given)    998
Cc1ccc(-c2nnc(-c3cccc(S(=O)(=O)NC(C)(C)CO)c3)o2)cc1    955
O=C(Cn1ccn2nc(-c3ccc(F)cc3)c(CO)c2c1=O)Nc1ccc(Cl)cc1F    909
CCC(C)NC(=O)Cn1cnc2nc(N3CCCC(C(=O)NC(C)C)C3)sc2c1=O (stereo not given)    643
COC(=O)c1ncoc1-c1ccccc1C(=O)NC1CCCC1    699
Cc1ccccc1-n1c(=O)c2sccc2n(Cc2nc(-c3ccc(C(C)(C)C)cc3)no2)c1=O    1080
Cc1ccc(NC(=O)Cn2nc3c(N4CCN(c5ccccc5C)CC4)nccn3c2=O)cc1F    1110
COc1cc(Cl)c(NS(=O)(=O)c2cc(-c3cc(C(F)(F)F)[nH]n3)sc2C)c(OC)c1    1030
Cc1ccccc1-c1nnc(CSc2nnc(NC(=O)CC3CCCCC3)s2)o1    1080
CCN(CC)S(=O)(=O)c1ccc2c(c1)CC(C(=O)NC1CCCCC1)N2C(C)=O (stereo not given)    839

----------
# Method description: gradient 5% acetonitrile 3 min, to 50% in 2 min, to 85% in 15 min, held 3 min, 100 µL/min
# Settings: column: Zorbax Extend-C18 2.1 x 50 mm; eluents: water / acetonitrile, 0.1% formic acid
Observed property: RP-LC retention time (s)

Below are worked cases with known answers.
Cn1nc2n(c1=O)CCN(S(=O)(=O)c1cccc3cccnc13)CC2    649
O=C(C1=CN(c2ccc(F)cc2)c2cc(F)ccc2S1(=O)=O)N1CCOCC1    769
Cc1ccc(-c2cc3c(N4CCCC(C(=O)NCc5ccc6c(c5)OCO6)C4)nccn3n2)c(C)c1 (stereo not given)    938
Cc1c(Cl)cccc1NC(=O)N1CCc2nc[nH]c2C1    592
O=C(CSc1ccc(N2CCN(c3ccccc3)CC2)nn1)NCc1ccco1    735
CCN1C(=O)Cc2cc(C(=O)N3CCN(c4ccccn4)CC3)ccc21    780
Cc1c(Cl)cccc1NC(=O)C(=O)NCC(O)c1ccc(C(F)(F)F)cc1 (stereo not given)    936
CCOCc1nc(C2CCCN(C(=O)C3(c4ccccc4)CC3)C2)no1 (stereo not given)    873
Cc1ccc(C)c(NC(=O)Nc2ccc3nnc(C)n3c2)c1    695
COC(=O)c1sccc1NC(=O)N1CCCn2nc(-c3ccc(OC)cc3)cc2C1    970

a: CCCCS(=O)(=O)N1CCCC(Cn2c(C3CC3)nc3cccnc32)C1 (stereo not given)
b: O=C(NC1CCCC1)c1cccn1Cc1noc(-c2ccc(Cl)cc2)n1
Ask: Choose between a and b : whose measured RP-LC retention time value is numerically larger? Please identify the chosen entry by its label.
Result: b

A: O=C(c1ccccc1F)N1CCC(C(=O)N2CCc3ccccc32)CC1
B: O=C(NCCCn1ncccc1=O)c1coc(NC(=O)c2cnccn2)n1
Ask: Choose between A and B : whose measured RP-LC retention time value is numerically larger? Please identify the chosen entry by its label.
Result: A
(A: 822 s, B: 554 s)

----------
# Method description: gradient 5% acetonitrile 3 min, to 50% in 2 min, to 85% in 15 min, held 3 min, 100 µL/min
# Settings: column: Zorbax Extend-C18 2.1 x 50 mm; eluents: water / acetonitrile, 0.1% formic acid
Observed property: RP-LC retention time (s)

COc1ccc(-c2n[nH]c3c2C(c2ccc(OC)c(OC)c2)NC3=O)cc1 (stereo not drawn)    637
CC1Oc2ccc(S(=O)(=O)N3CCC(C(=O)N4CCCc5ccccc54)CC3)cc2NC1=O (stereo not drawn)    891
CCCNC(=O)CC1CCN(C(=O)c2[nH]c(C)c(C(=O)OCC)c2C)CC1    683
Cc1cccc(NS(=O)(=O)c2cc3c(s2)CCN(C(=O)C2CC2)C3)c1    849
O=C(NCc1ccc(F)cc1Cl)c1sc2ncccc2c1-n1cccc1    1060
O=C(Nc1ccc2c(c1)C(=O)Nc1ccccc1O2)NC1CCCCC1    776
Fc1ccc(-c2nc3ncccn3c2Nc2ccc(Cl)cc2)cc1    847
CCCCN(C)c1nc(-c2ccc([N+](=O)[O-])cc2)nc2ccccc12    883
